test system: ATP; assay: switch fluorescence ratio, 500 uM ATP over buffer (Cy3 cluster intensity, sum of 5 cycles each) (fold (ratio)); higher = stronger signal-on switching upon ATP binding; sequences stand for … in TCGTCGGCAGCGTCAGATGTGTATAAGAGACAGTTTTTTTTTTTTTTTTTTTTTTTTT…TC; conditions: aptamer strand: ATP DNA aptamer (quencher-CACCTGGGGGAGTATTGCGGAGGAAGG + anchor), 100 nM annealed; ATP concentration: 500 uM;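 further: ATP exposure 15 min at 22 °C before imaging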
parameter measured: switch fluorescence ratio

    biosequence         parameter_measured  quantitative_result
 0   ATGTGGTGAC  switch fluorescence ratio                0.978
 1   TTTAGGGATA  switch fluorescence ratio                 1.09
 2   AAGCGGAGGG  switch fluorescence ratio                 1.02
 3   CACGCACATG  switch fluorescence ratio                  1.5
 4   ATATGGATAA  switch fluorescence ratio                 1.01
 5   GCGTTGGAAA  switch fluorescence ratio                0.997
 6   TGGGCATTAT  switch fluorescence ratio                 1.04
 7   GTTTGCCTCT  switch fluorescence ratio                0.995
 8   AAGTACGTTA  switch fluorescence ratio                 1.25
 9   CTTATTAGGC  switch fluorescence ratio                 1.05
10   ATGCGCTCGA  switch fluorescence ratio                 1.02
11   GGTGTATGGG  switch fluorescence ratio                 1.01
12   TTTGTTTAGG  switch fluorescence ratio                 1.01
13   CCATTAGTTG  switch fluorescence ratio                0.998
14   TTGAGAGGTT  switch fluorescence ratio                 1.02
15   TGACTGGGGT  switch fluorescence ratio                 1.02
16   TGATGGCAGT  switch fluorescence ratio                 1.02
17   ATGCCGGGGG  switch fluorescence ratio                    1
18   TTTCGGCGGT  switch fluorescence ratio                 1.02
19   AAACGGGCTA  switch fluorescence ratio                 1.03

---

Entries annotated with measured switch fluorescence ratio
tested on: ATP; test: switch fluorescence ratio, 500 uM ATP over buffer (Cy3 cluster intensity, sum of 5 cycles each) (fold (ratio)); higher = stronger signal-on switching upon ATP binding; sequences stand for … in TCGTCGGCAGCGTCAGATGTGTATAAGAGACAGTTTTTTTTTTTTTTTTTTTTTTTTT…TC; details: aptamer strand: ATP DNA aptamer (quencher-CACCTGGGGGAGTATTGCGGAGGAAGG + anchor), 100 nM annealed; ATP concentration: 500 uM;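 further: ATP exposure 15 min at 22 °C before imaging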
parameter measured: switch fluorescence ratio

>>> df
   biosequence  quantitative_result
0   TGCTTATTGG                0.972
1   TGACAACAGC                 1.05
2   CGAGTCGACG                 0.99
3   GGGCCTGAGG                0.969
4   CGGGCTTCCT                 1.21
5   TTGACTTGTC                0.999
6   ATTAATGGCG                0.955
7   TGTTGAAAAT                 1.02
8   GAAAGTGAGA                 1.01
9   AAGGGAATTT                 1.17

---

Entries annotated with measured switch fluorescence ratio
tested on: ATP; assay: switch fluorescence ratio, 500 uM ATP over buffer (Cy3 cluster intensity, sum of 5 cycles each) (fold (ratio)); higher = stronger signal-on switching upon ATP binding; sequences stand for … in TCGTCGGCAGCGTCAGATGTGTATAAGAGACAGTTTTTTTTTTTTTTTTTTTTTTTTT…TC; conditions: aptamer strand: ATP DNA aptamer (quencher-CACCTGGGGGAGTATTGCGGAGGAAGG + anchor), 100 nM annealed; ATP concentration: 500 uM;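 further: ATP exposure 15 min at 22 °C before imaging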
parameter measured: switch fluorescence ratio

>>> df
    biosequence  target         parameter_measured  quantitative_result
 0   GGTACACGGG     ATP  switch fluorescence ratio                 1.01
 1   CATTACCGGA     ATP  switch fluorescence ratio                 1.01
 2   ACTTTTGCTG     ATP  switch fluorescence ratio                0.983
 3   TTTTTATAGC     ATP  switch fluorescence ratio                 1.01
 4   TGGGGAATAG     ATP  switch fluorescence ratio                 1.04
 5   AACTCAGATT     ATP  switch fluorescence ratio                 1.01
 6   TGGAAAAGTT     ATP  switch fluorescence ratio                0.993
 7   TTGGGTGGTG     ATP  switch fluorescence ratio                0.983
 8   ATAGCCCGGG     ATP  switch fluorescence ratio                0.986
 9   AAAAGTGAAA     ATP  switch fluorescence ratio                 1.14
10   CCTATGAATG     ATP  switch fluorescence ratio                0.987
11   AGTCGTCACG     ATP  switch fluorescence ratio                0.993
12   TTGAACGTTT     ATP  switch fluorescence ratio                0.974
13   GCTCGAAAGA     ATP  switch fluorescence ratio                 1.01
14   CGGTTAGACG     ATP  switch fluorescence ratio                0.977
15   TTTCCGGTGC     ATP  switch fluorescence ratio                  1.7
16   GGGTGATTGC     ATP  switch fluorescence ratio                0.964
17   TGCGAGGCTT     ATP  switch fluorescence ratio                 1.02
18   TCAGACTAGA     ATP  switch fluorescence ratio                 1.03
19   TTACCCGTCA     ATP  switch fluorescence ratio                 1.06
20   ATCGTGGATT     ATP  switch fluorescence ratio                0.969
21   TCCAGGCGTA     ATP  switch fluorescence ratio                 1.02
22   TTTAGTTGAG     ATP  switch fluorescence ratio                0.971
23   TAGGGGGGTC     ATP  switch fluorescence ratio                    1
24   ATGTCGTGTG     ATP  switch fluorescence ratio                0.992
25   CATTGAGGTT     ATP  switch fluorescence ratio                0.979
26   CCACTTTGGG     ATP  switch fluorescence ratio                    1
27   TATAGAGATG     ATP  switch fluorescence ratio                 1.01
28   TAATAGAAGG     ATP  switch fluorescence ratio                0.977
29   GGTGTGGAAT     ATP  switch fluorescence ratio                 1.02
30   GAGAGGAGTA     ATP  switch fluorescence ratio                0.967
31   GTAAGGGTTG     ATP  switch fluorescence ratio                0.961
32   ATATTTTGTT     ATP  switch fluorescence ratio                 1.03
33   AAGTTGAGTA     ATP  switch fluorescence ratio                0.986
34   TGATTTTTCT     ATP  switch fluorescence ratio                    1
35   ATAGAGTTCT     ATP  switch fluorescence ratio                0.997
36   CGCAAAATTT     ATP  switch fluorescence ratio                 1.11
37   TCGGGGAAAT     ATP  switch fluorescence ratio                 1.01
38   GTTTCTTGGG     ATP  switch fluorescence ratio                0.995
39   GTCACCGACT     ATP  switch fluorescence ratio                    1
40   TTTGCCGAGG     ATP  switch fluorescence ratio                 1.01
41   CGATTGTCTG     ATP  switch fluorescence ratio                0.958
42   ATGTGAGGGG     ATP  switch fluorescence ratio                0.986
